Recorded values, source paper PMC7129073.

Give measured susceptible for each item. Keep answers brief.
System: S. pneumoniae
Assay overview: PROTEKT Italy, NCCLS microdilution
Format: cell-based, Streptococcus pneumoniae
Test context: year 1: 2002
API: value field is a number in %; no unit string.

In: Which value of susceptible has been reported for CC[C@H]1OC(=O)[C@H](C)C(=O)[C@H](C)[C@@H](O[C@@H]2O[C@H](C)C[C@H](N(C)C)[C@H]2O)[C@](C)(OC)C[C@@H](C)C(=O)[C@H](C)[C@H]2N(CCCCn3cnc(-c4cccnc4)c3)C(=O)O[C@]12C in the records?
Out: 99.7

In: Which value of susceptible has been reported for C[C@H]1COc2c(N3CCN(C)CC3)c(F)cc3c(=O)c(C(=O)O)cn1c23 in the records?
Out: 97.3

In: Which value of susceptible has been reported for CO[C@H]1/C=C/O[C@@]2(C)Oc3c(C)c(O)c4c(O)c(c(/C=N/N5CCN(C)CC5)c(O)c4c3C2=O)NC(=O)/C(C)=C\C=C\[C@H](C)[C@H](O)[C@@H](C)[C@@H](O)[C@@H](C)[C@H](OC(C)=O)[C@@H]1C in the records?
Out: 96.7

In: Which value of susceptible has been reported for CO/N=C(\C(=O)N[C@@H]1C(=O)N2C(C(=O)O)=C(CSc3nc(=O)c(=O)[nH]n3C)CS[C@H]12)c1csc(N)n1 in the records?
Out: 88.9

In: Which value of susceptible has been reported for CC1(C)S[C@@H]2[C@H](NC(=O)[C@H](N)c3ccc(O)cc3)C(=O)N2[C@H]1C(=O)O in the records?
Out: 93.8

###

Tested on: S. pneumoniae (SPN)
Assay overview: NCCLS broth microdilution, fluoroquinolones 1999–2004
Format: cell-based, Streptococcus pneumoniae
Test context: Streptococcus pneumoniae, read-out: MIC90 during the six years, 1999–2004
Give measured MIC90 for each item. Keep answers brief.
API: value field is a number in µg/mL; no unit string.

In: S. pneumoniae (SPN) / MIC90 / O=C(O)c1cn(C2CC2)c2cc(N3CCNCC3)c(F)cc2c1=O : value?
Out: 2

In: S. pneumoniae (SPN) / MIC90 / CO/N=C1\CN(c2nc3c(cc2F)c(=O)c(C(=O)O)cn3C2CC2)CC1CN (centres unmarked) : value?
Out: 0.03

In: S. pneumoniae (SPN) / MIC90 / COc1c(N2CCNC(C)C2)c(F)cc2c(=O)c(C(=O)O)cn(C3CC3)c12 (centres unmarked) : value?
Out: 0.5

###

System: ERSP
Assay overview: Broth microdilution
Type: cell-based, Streptococcus pneumoniae
Test context: NCCLS breakpoints (Amox/Clav 2/1 mcg/mL)
Give measured %Sus for each item. Keep answers brief.
API: value field is a number in %; no unit string.

In: Which value of %Sus has been reported for CC1(C)S[C@@H]2[C@H](NC(=O)Cc3ccccc3)C(=O)N2[C@H]1C(=O)O in the records?
Out: 18.6

In: Which value of %Sus has been reported for CO/N=C(\C(=O)N[C@@H]1C(=O)N2C(C(=O)O)=C(COC(N)=O)CS[C@H]12)c1ccco1 in the records?
Out: 26.0

In: Which value of %Sus has been reported for CC[C@H]1OC(=O)[C@H](C)[C@@H](O[C@H]2C[C@@](C)(OC)[C@@H](O)[C@H](C)O2)[C@H](C)[C@@H](O[C@@H]2O[C@H](C)C[C@H](N(C)C)[C@H]2O)[C@](C)(O)C[C@@H](C)C(=O)[C@H](C)[C@@H](O)[C@]1(C)O in the records?
Out: 0.0

In: Which value of %Sus has been reported for CC[C@H]1OC(=O)[C@H](C)[C@@H](O[C@H]2C[C@@](C)(OC)[C@@H](O)[C@H](C)O2)[C@H](C)[C@@H](O[C@@H]2O[C@H](C)C[C@H](N(C)C)[C@H]2O)[C@](C)(O)C[C@@H](C)CN(C)[C@H](C)[C@@H](O)[C@]1(C)O in the records?
Out: 0.3

###

Test system: Streptococcus pyogenes (SPY)
Assay overview: MIC
Format: cell-based
Test context: 2522 isolates
Give measured MIC90 for each item. Keep answers brief.
API: value field is a number in ig/ml; no unit string.

In: Which value of MIC90 has been reported for CC[C@H]1OC(=O)[C@H](C)[C@@H](O[C@H]2C[C@@](C)(OC)[C@@H](O)[C@H](C)O2)[C@H](C)[C@@H](O[C@@H]2O[C@H](C)C[C@H](N(C)C)[C@H]2O)[C@](C)(O)C[C@@H](C)CN(C)[C@H](C)[C@@H](O)[C@]1(C)O [azithromycin] in the records?
Out: 0.5

In: Which value of MIC90 has been reported for C[C@H]1COc2c(N3CCN(C)CC3)c(F)cc3c(=O)c(C(=O)O)cn1c23 [levofloxacin] in the records?
Out: 1

In: Which value of MIC90 has been reported for CC[C@H]1OC(=O)[C@H](C)C(=O)[C@H](C)[C@@H](O[C@@H]2O[C@H](C)C[C@H](N(C)C)[C@H]2O)[C@](C)(OC)C[C@@H](C)C(=O)[C@H](C)[C@H]2N(CCCCn3cnc(-c4cccnc4)c3)C(=O)O[C@]12C [telithromycin] in the records?
Out: 0.008

In: Which value of MIC90 has been reported for CC1(C)S[C@@H]2[C@H](NC(=O)Cc3ccccc3)C(=O)N2[C@H]1C(=O)O [penicillin] in the records?
Out: 0.03

In: Which value of MIC90 has been reported for CC[C@H]1OC(=O)[C@H](C)[C@@H](O[C@H]2C[C@@](C)(OC)[C@@H](O)[C@H](C)O2)[C@H](C)[C@@H](O[C@@H]2O[C@H](C)C[C@H](N(C)C)[C@H]2O)[C@](C)(OC)C[C@@H](C)C(=O)[C@H](C)[C@@H](O)[C@]1(C)O [clarithromycin] in the records?
Out: 0.12

###

Tested on: K. oxytoca
Assay overview: E-test susceptibility
Format: cell-based, Klebsiella oxytoca
Test context: non ICU
Readout name: Susceptible isolates

In: Which value of Susceptible isolates has been reported for CC(C)(O/N=C(\C(=O)N[C@@H]1C(=O)N2C(C(=O)[O-])=C(C[n+]3ccccc3)CS[C@H]12)c1csc(N)n1)C(=O)O [ceftazidime] in the records?
Out: 100/100%

In: Which value of Susceptible isolates has been reported for CNC(C)C1CCC(N)C(OC2C(N)CC(N)C(OC3OCC(C)(O)C(NC)C3O)C2O)O1 (centres unmarked) [gentamicin] in the records?
Out: 100/100%

In: Which value of Susceptible isolates has been reported for C[C@@H](O)[C@H]1C(=O)N2C(C(=O)O)=C(S[C@@H]3CN[C@H](C(=O)N(C)C)C3)[C@H](C)[C@H]12 [meropenem] in the records?
Out: 100/100%

In: Which value of Susceptible isolates has been reported for CO/N=C(\C(=O)N[C@@H]1C(=O)N2C(C(=O)[O-])=C(C[N+]3(C)CCCC3)CS[C@H]12)c1csc(N)n1 [cefepime] in the records?
Out: 96%

In: Which value of Susceptible isolates has been reported for C[C@@H](O)[C@H]1C(=O)N2C(C(=O)O)=C(SCCN=CN)C[C@H]12 [imipenem] in the records?
Out: 100/100%

###

Give measured MIC range for each item. Keep answers brief.
Test system: MRSA
Assay overview: Agar dilution MIC
Assay type: cell-based, Staphylococcus aureus
Test context: n = 50
API: value field is a number in µg/mL; no unit string.

In: Which value of MIC range has been reported for CN[C@H](CC(C)C)C(=O)N[C@H]1C(=O)N[C@@H](CC(N)=O)C(=O)N[C@H]2C(=O)N[C@H]3C(=O)N[C@H](C(=O)N[C@H](C(=O)O)c4cc(O)cc(O)c4-c4cc3ccc4O)[C@H](O)c3ccc(c(Cl)c3)Oc3cc2cc(c3O[C@@H]2O[C@H](CO)[C@@H](O)[C@H](O)[C@H]2O[C@H]2C[C@](C)(N)[C@H](O)[C@H](C)O2)Oc2ccc(cc2Cl)[C@H]1O in the records?
Out: 1

In: Which value of MIC range has been reported for COc1c(N2C[C@@H]3CCCN[C@@H]3C2)c(F)cc2c(=O)c(C(=O)O)cn(C3CC3)c12 in the records?
Out: 4

In: Which value of MIC range has been reported for CC(=O)NC[C@H]1CN(c2ccc(N3CCOCC3)c(F)c2)C(=O)O1 in the records?
Out: 2

In: Which value of MIC range has been reported for COc1c(N2CCNC(C)C2)c(F)cc2c(=O)c(C(=O)O)cn(C3CC3)c12 (stereo not shown) in the records?
Out: 4

###

Test system: Streptococcus agalactiae strains P0162 and P0425
Assay overview: Microdilution
Assay type: cell-based
Test context: strain P0162 (ParC Ser79Phe, GyrA Glu85Ala)
Give measured MIC for each item. Keep answers brief.
API: value field is a number in µg/mL; no unit string.

In: Which value of MIC has been reported for COc1c(N2C[C@@H]3CCCN[C@@H]3C2)c(F)cc2c(=O)c(C(=O)O)cn(C3CC3)c12 in the records?
Out: 0.5

In: Which value of MIC has been reported for C[C@H]1COc2c(N3CCN(C)CC3)c(F)cc3c(=O)c(C(=O)O)cn1c23 in the records?
Out: 8

In: Which value of MIC has been reported for NC1CCN(c2c(F)cc3c(=O)c(C(=O)O)cn(C4CC4)c3c2Cl)C1 (centres unmarked) in the records?
Out: 0.25

In: Which value of MIC has been reported for C[C@@H]1CN(c2c(F)c(N)c3c(=O)c(C(=O)O)cn(C4CC4)c3c2F)C[C@H](C)N1 in the records?
Out: 4
